# credit: PubChem BioAssay

# Assayed Target: Muscarinic acetylcholine receptor M4 (Homo sapiens) (UniProt P08173)
# Sequence (P08173 whole entry, looked up): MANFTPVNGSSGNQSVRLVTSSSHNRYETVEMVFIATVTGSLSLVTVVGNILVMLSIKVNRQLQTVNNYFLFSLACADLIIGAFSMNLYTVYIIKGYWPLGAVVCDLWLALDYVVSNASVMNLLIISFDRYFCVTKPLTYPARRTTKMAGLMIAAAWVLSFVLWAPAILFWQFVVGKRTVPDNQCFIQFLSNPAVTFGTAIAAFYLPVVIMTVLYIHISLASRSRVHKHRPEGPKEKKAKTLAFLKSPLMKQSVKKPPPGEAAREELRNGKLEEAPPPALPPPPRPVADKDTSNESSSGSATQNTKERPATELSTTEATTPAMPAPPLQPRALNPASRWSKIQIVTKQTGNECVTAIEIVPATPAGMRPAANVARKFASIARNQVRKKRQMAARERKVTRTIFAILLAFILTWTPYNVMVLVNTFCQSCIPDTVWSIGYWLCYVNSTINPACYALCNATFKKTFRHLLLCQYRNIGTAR
# Experiment: M4-linked GIRK flux change, two-sided – cell-based, HEK293 M4/GIRK, thallium flux, BTC-AM, M4 allosteric agonist project, primary screen (AID 625);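 further: thallium influx through GIRK channels coupled to M4 in HEK293 cells with BTC-AM dye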
# Test Context: at 10 µM, actives lie on both sides
The reader will find reported fluorescence slope values listed item by item below.
Value Kind: fluorescence slope

Compound: COCCOC(=O)C1=C(N)Oc2c(c(=O)oc3ccccc23)C1c1ccncc1 (stereo not drawn)
Value Kind: fluorescence slope
Reported Value: 0.00616

Compound: CCOC(=O)c1cccc([P+](=O)O)c1
Value Kind: fluorescence slope
Reported Value: 0.00773

Compound: OC(c1ccc(F)cc1)C(c1ccccc1)N1CCOCC1 (stereo not drawn)
Value Kind: fluorescence slope
Reported Value: 0.00525

* * *

# Assayed Target: Voltage-gated potassium channel subunit beta-2 (Rattus norvegicus) (UniProt P62483)
# Sequence (P62483 whole entry, looked up): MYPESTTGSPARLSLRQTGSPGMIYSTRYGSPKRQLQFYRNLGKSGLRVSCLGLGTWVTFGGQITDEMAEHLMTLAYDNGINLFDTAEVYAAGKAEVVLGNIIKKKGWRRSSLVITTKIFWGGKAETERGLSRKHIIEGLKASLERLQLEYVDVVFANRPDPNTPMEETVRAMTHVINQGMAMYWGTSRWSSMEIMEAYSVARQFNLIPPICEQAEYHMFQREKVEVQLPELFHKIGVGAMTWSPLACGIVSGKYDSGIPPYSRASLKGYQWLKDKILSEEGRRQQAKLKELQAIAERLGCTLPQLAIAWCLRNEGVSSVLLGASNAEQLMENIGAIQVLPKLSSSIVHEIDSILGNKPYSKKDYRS
# Experiment: enhancers of rat Kvbeta2 NADPH turnover – biochemical, NADPH fluorescence, primary screen (AID 623);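 further: fluorescence intensity change per second fitted from 20 to 320 s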
# Test Context: Recombinant KvBeta, NADPH fluorescence decrease slope, 10 min; at 10 µM; active compounds read low
The reader will find reported NADPH fluorescence slope values listed item by item below.

Sample Smiles: CSc1ccc(C(=O)C(C)(C)N2CCOCC2)cc1
NADPH fluorescence slope: -4.3e-05

Sample Smiles: CCCCCCn1c(O)c(C(C)=NC)c(=O)[nH]c1=O
NADPH fluorescence slope: -6.1e-05

Sample Smiles: Cc1cccc(N2CCc3c2nc2ccccc2c3N)c1
NADPH fluorescence slope: -9.7e-06

Sample Smiles: Cn1c(O)c(C=NCCCNC2CCCCC2)c(=O)n(C)c1=O
NADPH fluorescence slope: -0.000127

* * *

# Experiment: blockers of RIG-like receptor reporter activation – cell-based, Sendai virus stimulus, luciferase, 10K MLSCN set, TLR/RLR signaling modifier project, primary screen (AID 602276);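 further: firefly luciferase from ISG56 promoter only with Renilla not read in this screen; 0% = Sendai virus plus DMSO and 100% = medium plus DMSO without virus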
# Test Context: HEK293 RL24 IRF3 luciferase reporter, at 10 µM, active compounds read high

Molecule: CC(C)[C@@]1(NC(=O)[C@@H]2C=C3c4cccc5[nH]cc(c45)C[C@H]3N(C)C2)O[C@@]2(O)[C@@H]3CCCN3C(=O)[C@H](Cc3ccccc3)N2C1=O
Unit Annotation: %
inhibition: 22

Molecule: COc1ccc(C(=O)C(C)(C)NO)cc1
Unit Annotation: %
inhibition: 12.6

Molecule: Cc1ccc(C)c(NC(=O)CSc2nnc([C@@H](N)Cc3c[nH]c4ccccc34)o2)c1
Unit Annotation: %
inhibition: 9.6

Molecule: Cc1ccc(OCC(=O)NCCN2CCN(C(=O)COc3ccc(C)cc3)CC2)cc1
Unit Annotation: %
inhibition: -9.99

Molecule: CNCCc1c[nH]c2ccccc12
Unit Annotation: %
inhibition: 25.5

Molecule: O=C(CN1C(=O)CN=C(c2ccccc2)c2ccccc21)NCc1ccco1
Unit Annotation: %
inhibition: -12.7

Molecule: COc1ccccc1CN1CCN(C(=O)Cc2ccccc2)CC1
Unit Annotation: %
inhibition: -1.53

Molecule: COc1ccc(CCNC(=O)c2c(N)n(CCN3CCOCC3)c3nc4ccccc4nc23)cc1
Unit Annotation: %
inhibition: -3.7

Molecule: Cc1ccc(C)c(NC2=NCCCS2)c1
Unit Annotation: %
inhibition: 17.2

Molecule: CNP1(NC)=NC(C(F)(F)F)=NC(C(F)(F)F)=N1
Unit Annotation: %
inhibition: -2.73

Molecule: Cc1ccc(Cn2c(C)c3cnn(CC(=O)N4CCC5(CC4)OCCO5)c(=O)c3c2C)cc1
Unit Annotation: %
inhibition: 9.46

Molecule: CCCCn1c(O)c(C(C)=NC(Cc2c[nH]c3ccccc23)C(=O)OC)c(=O)[nH]c1=O (stereo unspecified)
Unit Annotation: %
inhibition: 0.703

Molecule: COc1ccc(CC[n+]2cc(/N=C(\C)[O-])on2)cc1OC
Unit Annotation: %
inhibition: 7.77

Molecule: CC12CCCCC1=[N+]([O-])CN2O (stereo unspecified)
Unit Annotation: %
inhibition: -0.121

Molecule: CC(=O)[C@@]1(O)CC[C@H]2[C@@H]3CC=C4C[C@@H](O)CC[C@]4(C)[C@H]3CC[C@@]21C
Unit Annotation: %
inhibition: 9

Molecule: CC(=O)C1C(=O)NC23CCCCC2C1c1ccccc1O3 (stereo unspecified)
Unit Annotation: %
inhibition: 4.02
